EC50 for assorted molecules
Target: Apelin receptor (Homo sapiens)
Sequence (P35414 whole entry): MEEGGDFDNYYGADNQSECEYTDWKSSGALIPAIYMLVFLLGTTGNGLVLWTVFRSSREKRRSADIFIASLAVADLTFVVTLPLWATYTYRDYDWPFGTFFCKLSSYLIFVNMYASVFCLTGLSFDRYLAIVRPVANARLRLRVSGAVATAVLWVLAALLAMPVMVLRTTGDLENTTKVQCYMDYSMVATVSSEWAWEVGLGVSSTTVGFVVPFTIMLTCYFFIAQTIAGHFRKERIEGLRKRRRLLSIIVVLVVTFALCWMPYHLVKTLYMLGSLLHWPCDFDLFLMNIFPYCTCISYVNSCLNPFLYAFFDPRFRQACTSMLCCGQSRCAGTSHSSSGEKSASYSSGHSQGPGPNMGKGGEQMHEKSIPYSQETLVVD
Assay: Agonist activity at human APJ-R expressed in HEK293 cells assessed as inhibition of forskolin- stimulated cAMP accumulation incubated for 30 mins by HTRF assay

molecule | EC50, nM
CCC[C@@H](NC(=O)c1ccc(-c2cc(Cl)ccc2C(=O)Nc2ccc(OC)c(F)c2)c(C(=O)O)c1)c1ccccc1 | 0.33
CCC[C@@H](NC(=O)c1ccc(-c2c(Cl)cccc2-c2nc3ccccc3[nH]2)c(C(=O)O)c1)c1ccccc1 (stereo in doubt; 15b) | 22
CCC[C@@H](NC(=O)c1ccc(-c2c(F)cccc2-c2nc3ccccc3[nH]2)c(C(=O)O)c1)c1ccccc1 | 0.51
CCC[C@@H](NC(=O)c1ccc(-c2cc(Cl)ccc2-c2ncc(-c3ccccc3)[nH]2)c(C(=O)O)c1)c1ccccc1 | 7.4
CCC[C@@H](NC(=O)c1ccc(-c2ccc(Cl)cc2-c2nc3ccccc3[nH]2)c(C(=O)O)c1)c1ccccc1 | 9
CCC[C@@H](NC(=O)c1ccc(-c2cc(Cl)ccc2-c2nc3ccccc3o2)c(C(=O)O)c1)c1ccccc1 | 4900
CCC[C@@H](NC(=O)c1ccc(-c2cc(Cl)ccc2-c2nc3ccccc3[nH]2)c(C(=O)O)c1)c1ccccc1 | 1.4
CCC[C@@H](NC(=O)c1ccc(-c2c(Cl)cccc2-c2nc3cc(OC)ccc3[nH]2)c(C(=O)O)c1)c1ccccc1 | 0.062
COc1ccc(NC(=O)c2ccc(Cl)cc2-c2ccc(C(=O)N[C@H](CO)c3ccccc3)cc2C(=O)O)cc1F | 59
CCC[C@@H](NC(=O)c1ccc(-c2cc(C)ccc2-c2nc3ccccc3[nH]2)c(C(=O)O)c1)c1ccccc1 | 1.5
CCC[C@@H](NC(=O)c1ccc(-c2c(Cl)cccc2-c2nc3ccccc3[nH]2)c(C(=O)O)c1)c1ccccc1 (stereo in doubt; 12f) | 0.2
CCC[C@@H](NC(=O)c1ccc(-c2cccc(Cl)c2-c2nc3ccccc3[nH]2)c(C(=O)O)c1)c1ccccc1 | 2100
CCC[C@@H](NC(=O)c1ccc(-c2ccccc2-c2nc3ccccc3[nH]2)c(C(=O)O)c1)c1ccccc1 | 5.7
CCC[C@@H](NC(=O)c1ccc(-c2cc(Cl)ccc2-c2nc3cc(OC)ccc3[nH]2)c(C(=O)O)c1)c1ccccc1 | 0.083
CCC[C@@H](NC(=O)c1ccc(-c2cc(Cl)ccc2-c2nc3cccc(C)c3[nH]2)c(C(=O)O)c1)c1ccccc1 | 51
COC[C@@H](NC(=O)c1ccc(-c2cc(Cl)ccc2C(=O)Nc2ccc(OC)c(F)c2)c(C(=O)O)c1)c1ccccc1 | 0.19
COc1ccc(NC(=O)c2ccc(Cl)cc2-c2ccc(C(=O)Nc3ccc4c(c3)CCC4)cc2C(=O)O)cc1F | 29
